// data source = PubChem BioAssay AID602166

TEST TARGET: Nuclear receptor coactivator 3 (Homo sapiens) (UniProt Q9Y6Q9)
Sequence (Q9Y6Q9 whole entry, looked up): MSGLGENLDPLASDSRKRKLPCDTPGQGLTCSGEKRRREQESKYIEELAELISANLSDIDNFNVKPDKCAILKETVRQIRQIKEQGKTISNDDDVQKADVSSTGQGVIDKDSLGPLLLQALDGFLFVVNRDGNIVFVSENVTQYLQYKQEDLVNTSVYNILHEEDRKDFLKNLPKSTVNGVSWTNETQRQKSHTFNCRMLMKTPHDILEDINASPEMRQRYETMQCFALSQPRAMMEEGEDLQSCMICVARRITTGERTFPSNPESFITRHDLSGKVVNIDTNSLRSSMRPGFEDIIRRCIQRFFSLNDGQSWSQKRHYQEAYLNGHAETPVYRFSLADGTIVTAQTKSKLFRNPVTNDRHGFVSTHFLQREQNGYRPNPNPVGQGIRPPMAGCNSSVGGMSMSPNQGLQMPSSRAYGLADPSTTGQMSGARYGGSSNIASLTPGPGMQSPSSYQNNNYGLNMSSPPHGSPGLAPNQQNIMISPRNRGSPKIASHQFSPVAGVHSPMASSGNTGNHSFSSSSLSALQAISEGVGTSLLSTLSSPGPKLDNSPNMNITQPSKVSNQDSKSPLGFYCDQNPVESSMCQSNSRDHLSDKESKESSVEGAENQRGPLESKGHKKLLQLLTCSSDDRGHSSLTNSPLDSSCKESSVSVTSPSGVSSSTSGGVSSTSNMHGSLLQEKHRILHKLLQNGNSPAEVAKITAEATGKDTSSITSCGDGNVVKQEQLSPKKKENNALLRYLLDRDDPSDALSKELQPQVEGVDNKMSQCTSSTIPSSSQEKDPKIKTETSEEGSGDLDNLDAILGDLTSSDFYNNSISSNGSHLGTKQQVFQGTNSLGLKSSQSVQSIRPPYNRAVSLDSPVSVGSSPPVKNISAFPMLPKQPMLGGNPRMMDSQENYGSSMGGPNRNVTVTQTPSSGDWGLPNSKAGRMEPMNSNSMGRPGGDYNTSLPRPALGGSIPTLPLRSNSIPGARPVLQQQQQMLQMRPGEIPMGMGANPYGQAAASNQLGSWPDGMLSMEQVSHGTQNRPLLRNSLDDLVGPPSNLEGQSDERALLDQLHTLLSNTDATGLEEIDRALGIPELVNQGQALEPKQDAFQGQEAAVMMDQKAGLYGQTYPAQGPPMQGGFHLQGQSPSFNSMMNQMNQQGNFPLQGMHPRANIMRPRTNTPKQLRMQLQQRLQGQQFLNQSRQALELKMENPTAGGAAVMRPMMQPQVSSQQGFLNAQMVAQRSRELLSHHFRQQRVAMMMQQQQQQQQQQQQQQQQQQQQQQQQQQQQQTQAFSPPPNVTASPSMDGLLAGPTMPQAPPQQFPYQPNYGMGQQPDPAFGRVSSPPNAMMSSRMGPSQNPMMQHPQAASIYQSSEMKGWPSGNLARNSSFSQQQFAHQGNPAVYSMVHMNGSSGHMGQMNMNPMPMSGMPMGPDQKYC
PROTOCOL DETAILS: NCOA3 reporter inhibition potency – cell-based, luminescence, dose response (AID 602166);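 further: potency for reduction of SRC3 reporter signal so compounds are inhibitors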
SETUP CONDITIONS: SRC3 luciferase reporter cell assay
The source made the active and inactive calls. How the calls were made is not given here.
The categories you may choose from are active, inactive

Past entries and their recorded results:
>>> class_name("C(=NNc1ccc2ccccc2n1)c1ccccn1")
"inactive"
>>> class_name("COc1ccc(/C=C2\\CN(Cc3ccccc3)C/C(=C\\c3ccc(OC)c(O)c3)C2=O)cc1O")
"inactive"
>>> class_name("COc1ccc(-c2cn[nH]c2-c2ccc(OC)cc2O)cc1")
"active"
>>> class_name("O=C(N/N=C(\\c1ccccc1)c1ccccn1)c1ccccc1Cl")
"inactive"
>>> class_name("COc1cc2[nH]c3c(Cl)ncnc3c2cc1OC")
"inactive"
>>> class_name("Cc1cccc(Oc2sc(C(=O)c3ccccc3)c(N)c2C#N)c1")
"active"
>>> class_name("c1ccc(-c2noc(-c3ccc4ccccc4c3)n2)nc1")
"active"
>>> class_name("CN1CCN(c2ccc(NC(=O)N3CCc4ccccc43)cc2)CC1")
"inactive"

What call does the record list for "Cc1cc(C(=O)CN2C(=O)c3ccccc3S2(=O)=O)c(C)n1C(C)C" ?
inactive

What call does the record list for "c1cc2[nH]snc2c2nc(C3CC3)nc12" ?
active

What call does the record list for "CCc1nc(N)nc(N)c1-c1ccc(Cl)c([N+](=O)[O-])c1" ?
active

What call does the record list for Cc1ccc(C2=NN(C(=O)CCl)C(c3cccs3)C2)o1 (stereo not given) ?
inactive

What call does the record list for "Cc1ccc(N(CCC#N)C(=O)CCl)cc1C" ?
active

What call does the record list for Nc1nc2c(nnn2C2CC(O)C(CO)O2)c(=O)[nH]1 (stereo not given) ?
active

What call does the record list for "CN(C)c1ccc(CNC(=O)CCNS(=O)(=O)c2cc(Br)cnc2N)cc1" ?
active
